Molecular target: T1, c-mpl receptor (Homo sapiens (Human), UniProt P40238 26-491, The MPL used for panning was biotinylated; the biotin site is not stated and is not carried by the letters.)
T1 construct: also called TPO receptor
T1 sequence: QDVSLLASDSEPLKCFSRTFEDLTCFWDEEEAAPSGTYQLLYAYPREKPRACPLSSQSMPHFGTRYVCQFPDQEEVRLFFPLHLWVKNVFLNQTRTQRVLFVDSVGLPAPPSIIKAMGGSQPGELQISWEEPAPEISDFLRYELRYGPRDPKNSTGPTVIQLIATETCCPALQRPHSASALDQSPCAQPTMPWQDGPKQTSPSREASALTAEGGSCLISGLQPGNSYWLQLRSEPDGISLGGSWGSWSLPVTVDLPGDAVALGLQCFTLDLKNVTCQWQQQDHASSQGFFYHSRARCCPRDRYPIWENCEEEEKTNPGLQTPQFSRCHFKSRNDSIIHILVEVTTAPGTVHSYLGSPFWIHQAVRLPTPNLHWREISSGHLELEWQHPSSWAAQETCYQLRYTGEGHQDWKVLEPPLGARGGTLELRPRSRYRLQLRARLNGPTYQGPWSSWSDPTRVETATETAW
Experiment: phage-ELISA
Outcome: yes for Relative activity of at least 80; no for anything lower.

{"binder": "IEGWWWQFYFHAKEDHS [SEQ ID NO: 255]", "classAssignment": "yes"}

Check the entry IEGPTFKQWQAWRKKHS [SEQ ID NO: 252] : does Relative activity equal or exceed 80?
yes

Next: IEGWIWRPWLAARA [SEQ ID NO: 287]
yes

Also IEGMVKLGVIRLLVL [SEQ ID NO: 314] , if possible.
no

src = patent US20110275122A1
